Endpoint: IC50. System: human ACC2 (Homo sapiens (Human), UniProt O00763). Items follow.
Sequence (O00763 129-2458): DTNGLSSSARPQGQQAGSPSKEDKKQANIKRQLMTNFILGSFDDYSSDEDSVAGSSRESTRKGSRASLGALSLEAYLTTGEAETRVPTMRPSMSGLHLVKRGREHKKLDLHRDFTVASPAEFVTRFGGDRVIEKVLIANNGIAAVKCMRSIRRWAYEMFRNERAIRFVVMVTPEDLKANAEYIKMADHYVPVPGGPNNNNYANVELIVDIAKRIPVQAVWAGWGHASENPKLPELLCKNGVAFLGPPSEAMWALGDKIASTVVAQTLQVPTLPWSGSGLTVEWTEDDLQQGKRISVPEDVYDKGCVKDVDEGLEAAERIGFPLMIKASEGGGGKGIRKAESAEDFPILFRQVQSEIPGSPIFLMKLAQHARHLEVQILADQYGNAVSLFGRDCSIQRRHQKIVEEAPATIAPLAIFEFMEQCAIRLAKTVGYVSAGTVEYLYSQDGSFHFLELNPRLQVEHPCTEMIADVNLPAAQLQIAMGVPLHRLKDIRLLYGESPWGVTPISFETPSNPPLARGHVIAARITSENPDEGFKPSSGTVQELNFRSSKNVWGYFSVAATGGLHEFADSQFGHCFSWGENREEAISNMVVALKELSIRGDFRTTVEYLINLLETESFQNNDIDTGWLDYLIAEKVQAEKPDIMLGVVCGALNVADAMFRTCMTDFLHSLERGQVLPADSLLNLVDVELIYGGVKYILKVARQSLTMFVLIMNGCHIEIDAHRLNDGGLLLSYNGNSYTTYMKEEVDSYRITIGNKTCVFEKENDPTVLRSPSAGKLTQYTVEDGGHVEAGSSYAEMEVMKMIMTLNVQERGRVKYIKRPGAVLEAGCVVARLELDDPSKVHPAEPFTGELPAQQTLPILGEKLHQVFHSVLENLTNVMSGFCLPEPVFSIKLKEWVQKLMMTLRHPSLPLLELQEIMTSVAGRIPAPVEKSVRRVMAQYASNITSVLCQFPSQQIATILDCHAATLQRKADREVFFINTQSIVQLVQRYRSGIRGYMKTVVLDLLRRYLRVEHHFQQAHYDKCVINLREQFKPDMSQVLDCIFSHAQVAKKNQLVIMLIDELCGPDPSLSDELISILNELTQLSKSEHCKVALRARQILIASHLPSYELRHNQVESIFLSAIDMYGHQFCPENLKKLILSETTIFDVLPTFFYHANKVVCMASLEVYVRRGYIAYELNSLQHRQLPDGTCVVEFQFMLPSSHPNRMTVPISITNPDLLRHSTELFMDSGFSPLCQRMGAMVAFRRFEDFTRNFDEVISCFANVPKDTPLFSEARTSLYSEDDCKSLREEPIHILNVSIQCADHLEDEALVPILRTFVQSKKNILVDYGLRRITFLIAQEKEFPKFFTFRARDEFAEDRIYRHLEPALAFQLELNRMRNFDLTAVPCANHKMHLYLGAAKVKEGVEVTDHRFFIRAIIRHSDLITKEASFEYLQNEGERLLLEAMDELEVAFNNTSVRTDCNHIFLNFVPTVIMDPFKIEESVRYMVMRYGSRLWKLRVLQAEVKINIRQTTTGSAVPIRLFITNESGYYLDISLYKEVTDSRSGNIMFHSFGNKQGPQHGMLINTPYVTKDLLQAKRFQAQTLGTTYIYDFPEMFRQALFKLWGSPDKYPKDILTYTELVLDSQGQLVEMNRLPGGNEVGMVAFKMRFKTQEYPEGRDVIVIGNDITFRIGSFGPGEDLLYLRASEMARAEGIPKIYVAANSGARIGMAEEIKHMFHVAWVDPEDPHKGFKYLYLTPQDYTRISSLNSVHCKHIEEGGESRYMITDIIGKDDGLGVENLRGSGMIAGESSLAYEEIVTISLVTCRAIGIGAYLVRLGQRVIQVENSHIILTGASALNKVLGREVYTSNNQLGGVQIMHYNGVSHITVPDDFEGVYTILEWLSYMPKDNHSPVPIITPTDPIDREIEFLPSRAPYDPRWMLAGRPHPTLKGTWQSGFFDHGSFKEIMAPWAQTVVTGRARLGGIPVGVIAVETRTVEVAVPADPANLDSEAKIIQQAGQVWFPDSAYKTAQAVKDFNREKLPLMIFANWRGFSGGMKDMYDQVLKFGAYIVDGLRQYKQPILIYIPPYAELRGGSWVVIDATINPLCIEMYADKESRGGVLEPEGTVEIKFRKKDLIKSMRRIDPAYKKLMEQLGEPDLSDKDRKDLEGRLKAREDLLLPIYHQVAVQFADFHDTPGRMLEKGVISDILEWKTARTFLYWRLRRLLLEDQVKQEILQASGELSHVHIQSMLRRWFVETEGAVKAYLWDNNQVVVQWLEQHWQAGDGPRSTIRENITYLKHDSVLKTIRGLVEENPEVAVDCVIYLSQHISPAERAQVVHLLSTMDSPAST
Measured Metric: IC50 (nM)

Reference set, count: 6
                                   molecule  observed
0  CC(=O)N[C@@H](C)c1ccc(OC2CCN(c3cc(OC(C)C)ncc3F)C2)cc1 (some centres unmarked)       100
1  CCN(C)c1nccc(N2CC[C@@H](Oc3ccc([C@H](C)NC(C)=O)cc3)C2)c1F        45
2  CC(=O)N[C@@H](C)c1ccc(OC2CCN(c3ccc(OCC4CC4)nc3)C2)cc1 (some centres unmarked)       394
3  CC(=O)N[C@@H](C)c1ccc(O[C@@H]2CCN(c3cc(Cl)ncc3C)C2)cc1       565
4  C[C@H](NC(=O)C(C)(F)F)c1ccc(OC2CCN(c3ccc(OCC4CC4(F)F)cn3)C2)cc1 (some centres unmarked)       276
5  CC(O)C(=O)N[C@@H](C)c1ccc(OC2CCN(c3cccc(C(F)(F)F)n3)C2)cc1 (some centres unmarked)       428

A = CC(=O)N[C@@H](C)c1ccc(OC2CCN(c3ccnc(OC(C)C)c3)C2)cc1 (some centres unmarked)
B = CCC(=O)N[C@@H](C)c1ccc(OC2CCN(c3ccc(OCC4CC4(F)F)cn3)C2)cc1 (some centres unmarked)
Enquiry: # return whichever of A and B has the smaller IC50 Lab log: write the label of the selected item as the result.
Return: B

====

pIC50: −log10 of the molar value.
Endpoint: pIC50. System: human ACC2 (Homo sapiens (Human), UniProt O00763). Items follow.
Measured Metric: pIC50

I = CC(=O)N[C@@H](C)c1ccc(OC2CCN(c3ccc(OC4CCCC4)cn3)C2)cc1 (stereo partly drawn) [Example 1.27]
II = CC(=O)N[C@@H](C)c1ccc(OC2CCN(c3ccc(OCC4CC4(F)F)nc3)C2)cc1 (stereo partly drawn) [Example 1.42]
III = CC(=O)N[C@@H](C)c1ccc(O[C@@H]2CCN(c3ccnc(N4CCCC4)c3F)C2)cc1 [Example 10.16]
IV = CC(=O)N[C@@H](C)c1ccc(OC2CCN(c3ncc(OCCC4CC4)cc3F)C2)cc1 (stereo partly drawn) [Example 1.34]
Enquiry: I'd appreciate it if you sorted the entries above by their pIC50, lowest to highest. Thanks in advance for listing the labels in the requested order.
Return: IV, II, I, III
(IV: 6.36, II: 6.66, I: 7.15, III: 7.46)

Values from patent US8877741B2
